B1: TRIM43 (parent)
chain: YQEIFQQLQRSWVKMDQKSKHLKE

Variants of: B1
assay-name: protein stability index of a GFP-peptide fusion (GPS, HEK-293T) (PSI 1-6); higher = more stable;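 note: lentivirally expressed fusions sorted by FACS into six bins by GFP to DsRed ratio, PSI derived from sequencing read proportions per bin multiplied by bin number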
condition-set: c terminus: a fixed tail appended
Assign TRUE to entries whose protein stability index meets or exceeds 2; assign FALSE to the rest.

[
  {
    "variant-descriptor": "D16E",
    "class-assignment": "TRUE"
  },
  {
    "variant-descriptor": "L22D",
    "class-assignment": "TRUE"
  },
  {
    "variant-descriptor": "E3M",
    "class-assignment": "TRUE"
  },
  {
    "variant-descriptor": "Q6L",
    "class-assignment": "FALSE"
  },
  {
    "variant-descriptor": "F5M",
    "class-assignment": "TRUE"
  },
  {
    "variant-descriptor": "R10V",
    "class-assignment": "TRUE"
  },
  {
    "variant-descriptor": "K14R",
    "class-assignment": "FALSE"
  },
  {
    "variant-descriptor": "Q9G",
    "class-assignment": "TRUE"
  },
  {
    "variant-descriptor": "S11E",
    "class-assignment": "FALSE"
  },
  {
    "variant-descriptor": "L8D",
    "class-assignment": "TRUE"
  },
  {
    "variant-descriptor": "K20M",
    "class-assignment": "TRUE"
  },
  {
    "variant-descriptor": "R10T",
    "class-assignment": "FALSE"
  },
  {
    "variant-descriptor": "R10L",
    "class-assignment": "TRUE"
  },
  {
    "variant-descriptor": "D16N",
    "class-assignment": "TRUE"
  },
  {
    "variant-descriptor": "L8Q",
    "class-assignment": "TRUE"
  },
  {
    "variant-descriptor": "S11G",
    "class-assignment": "TRUE"
  },
  {
    "variant-descriptor": "Q9T",
    "class-assignment": "TRUE"
  },
  {
    "variant-descriptor": "V13Y",
    "class-assignment": "TRUE"
  },
  {
    "variant-descriptor": "Y1D",
    "class-assignment": "TRUE"
  },
  {
    "variant-descriptor": "R10N",
    "class-assignment": "TRUE"
  },
  {
    "variant-descriptor": "L8G",
    "class-assignment": "TRUE"
  },
  {
    "variant-descriptor": "Q2A",
    "class-assignment": "FALSE"
  },
  {
    "variant-descriptor": "R10K",
    "class-assignment": "TRUE"
  },
  {
    "variant-descriptor": "W12H",
    "class-assignment": "TRUE"
  },
  {
    "variant-descriptor": "L22H",
    "class-assignment": "TRUE"
  },
  {
    "variant-descriptor": "V13N",
    "class-assignment": "TRUE"
  },
  {
    "variant-descriptor": "S19P",
    "class-assignment": "TRUE"
  },
  {
    "variant-descriptor": "Q7C",
    "class-assignment": "FALSE"
  },
  {
    "variant-descriptor": "D16F",
    "class-assignment": "TRUE"
  }
]

These entries and their values trace back to the supplement of paper PMC10567573.
